# Test system: HIV
# Type: cell-based
# particulars: EC50 in the presence of human serum (25%) versus without human serum, MT-4 cells
# Method: To confirm the influence of human serum on anti-HIV activity as necessary, human serum was added and determined EC50 in this condition. […] The EC50 in the presence of human serum was calculated in the same manner as in Test Example 1 and the ratio of EC50 in the presence of human serum and EC50 in the absence of human serum was calculated as the potency shift value. […]
Assign class by Potency shift value: not lower than 20 means yes; lower than 20 means no.

Known results for compounds:
INSERT INTO assay_data (smiles_representation, label_class) VALUES
  ('COCCOC(=O)Nc1cnc(N2CCn3c(C)cc4c(-c5ccc(C)cc5)c([C@H](OC(C)(C)C)C(=O)O)c(C)c2c43)nc1', 'yes'),
  ('Cc1ccc(-c2c([C@H](OC(C)(C)C)C(=O)O)c(C)c3c4c2cc(C)n4CCN3c2ncc(O[C@@H]3CCN(C)C3)cn2)cc1', 'no'),
  ('COc1cnc(N2CCn3c(C)cc4c(-c5ccc(C)cc5O)c([C@H](OC(C)(C)C)C(=O)O)c(C)c2c43)nc1', 'yes'),
  ('Cc1c([C@H](OC(C)(C)C)C(=O)O)c(-c2ccc(Cl)cc2)c2cc(C)n3c2c1N(c1ncc(N2CCCC2)cn1)CC3', 'yes'),
  ('Cc1c([C@H](OC(C)(C)C)C(=O)O)c(-c2ccc(Cl)cc2)c2cc(C)n3c2c1N(C1=NCCO1)CC3', 'no'),
  ('Cc1ccc(-c2c([C@H](OC(C)(C)C)C(=O)O)c(C)c3c4c2cc(C)n4CCN3c2ncc(Oc3nccc4ccccc34)cn2)cc1', 'yes'),
  ('Cc1ccc(-c2c([C@H](OC(C)(C)C)C(=O)O)c(C)c3c4c2cc(C)n4CCN3c2ccc(C)nn2)cc1', 'no'),
  ('COc1cncc(N2CCn3c(C)cc4c(-c5ccc(C)cc5)c([C@H](OC(C)(C)C)C(=O)O)c(C)c2c43)n1', 'no'),
  ('Cc1ccc(-c2c([C@H](OC(C)(C)C)C(=O)O)c(C)c3c4c2cc(C)n4CCN3c2ncc(CCO)cn2)cc1', 'yes'),
  ('Cc1ccc(-c2c([C@H](OC(C)(C)C)C(=O)O)c(C)c3c4c2cc(C)n4CCN3c2ncc(C)cn2)cc1', 'yes');

With those in mind, consider the next compound.
Exam item: decide whether the reported Potency shift value for "Cc1ccc(-c2c([C@H](OC(C)(C)C)C(=O)O)c(C)c3c4c2cc(C)n4CCN3c2ncc(CCN3CCN(C)CC3)cn2)cc1" is at least 20.
no

====

# Test system: HIV (HTLV-IIIB strain)
# assay.details: HIV replication inhibition assay (Test Example 1; MT-4 cells, MTT)
# Type: cell-based
# particulars: Human immunodeficiency virus 1, MT4, 96 h; HIV (HTLV-IIIB strain), MT-4 cells, MTT, four days; read-out: EC90
Catalogue of log10 EC90 readings, one per entry.
In our notation, the value equals log10 of EC90 in nM.

Completed entries (count: 5):
INSERT INTO assay_data (compound, measured_number) VALUES
  ('Cc1c([C@H](OC(C)(C)C)C(=O)O)c(-c2ccc(Cl)cc2)c2cc(C)n3c2c1N(C(=O)CN(C)C)CC3', 1.49),
  ('Cc1ccc(-c2c([C@H](OC(C)(C)C)C(=O)O)c(C)c3c4c2cc(C)n4C(C)CN3CCN(C)C)cc1 (single isomer, unassigned)', 1.30),
  ('Cc1ccc(-c2c([C@H](OC(C)(C)C)C(=O)O)c(C)c3c4c2cc(C)n4CCN3c2ccc(C)nn2)cc1', 0.34),
  ('CC(=O)N1CCn2c(C)cc3c(-c4ccc(C)cc4)c([C@H](OC(C)(C)C)C(=O)O)c(C)c1c32', 0.34),
  ('Cc1c([C@H](OC(C)(C)C)C(=O)O)c(-c2ccc(F)cc2)c2cc(C)n3c2c1N(CCN(C)C)CC3', 1.38);

Checklist item: log10 EC90 tested on HIV (HTLV-IIIB strain), entry "Cc1c([C@H](OC(C)(C)C)C(=O)O)c(-c2ccc(Cl)cc2)c2cc(C)n3c2c1N(c1ncc(OCC2COC2)cn1)CC3" , value?
0.46

Checklist item: log10 EC90 tested on HIV (HTLV-IIIB strain), entry "Cc1c([C@H](OC(C)(C)C)C(=O)O)c(-c2ccc(Cl)cc2)c2cc(C)n3c2c1N(S(C)(=O)=O)[C@@H](CC(F)F)C3" , value?
0.36

Checklist item: log10 EC90 tested on HIV (HTLV-IIIB strain), entry "Cc1ccc(N2CCn3c(C)cc4c(-c5ccc(Cl)cc5)c([C@H](OC(C)(C)C)C(=O)O)c(C)c2c43)nn1" , value?
0.71

Checklist item: log10 EC90 tested on HIV (HTLV-IIIB strain), entry "COCCN1CCn2c(C)cc3c(-c4ccc(C)cc4)c([C@H](OC(C)(C)C)C(=O)O)c(C)c1c32" , value?
0.20

====

# Tested on: HIV (HTLV-IIIB strain)
# assay.details: HIV replication inhibition assay (Test Example 1; MT-4 cells, MTT)
# Type: cell-based
# particulars: HIV (HTLV-IIIB strain), MT-4 cells, MTT, four days; read-out: EC50
Catalogue of pEC50 readings, one per entry.
On this scale, pEC50 is minus log10 of a concentration expressed in M (mol/L).

Completed entries (count: 2):
INSERT INTO assay_data (smiles_representation, measured_number) VALUES
  ('Cc1ccc(-c2c([C@H](OC(C)(C)C)C(=O)O)c(C)c3c4c2cc(C)n4CCN3c2ncc(CCN3CCCCC3)cn2)cc1', 8.43),
  ('Cc1ccc(-c2c([C@H](OC(C)(C)C)C(=O)O)c(C)c3c4c2cc(C)n4CCN3c2ccc(N3CCCC3=O)nn2)cc1', 8.82);

Field request: pEC50 | item: "Cc1ccc(-c2c([C@H](OC(C)(C)C)C(=O)O)c(C)c3c4c2cc(C)n4CCN3c2ncc(OCCN(C)C)cn2)cc1"
8.22

====

# Tested on: HIV
# Type: cell-based
# particulars: EC50 in the presence of human serum (25%) versus without human serum, MT-4 cells
Binarize Potency shift value at 5; below is yes, at or above is no.

INSERT INTO results (compound, label_class) VALUES
  ('Cc1cc(F)c(-c2c([C@H](OC(C)(C)C)C(=O)O)c(C)c3c4c2cc(C)n4CCN3CCN(C)C)c(F)c1', 'yes');

Please determine if Cc1c([C@H](OC(C)(C)C)C(=O)O)c(-c2ccc(Cl)cc2)c2cc(C)n3c2c1N(C)C1CNCC13 (stereo partly drawn) is below 5 in terms of Potency shift value.
yes

Please determine if "Cc1cc2c(-c3ccc(Cl)cc3)c([C@H](OC(C)(C)C)C(=O)O)c(Cl)c3c2n1CCN3C" is below 5 in terms of Potency shift value.
no

====

# Test system: HIV
# Type: cell-based
# particulars: EC50 in the presence of human serum (25%) versus without human serum, MT-4 cells
Catalogue of Potency shift value readings, one per entry.

INSERT INTO measurements (molecule, readout_name, result) VALUES
  ('Cc1ccc(-c2c([C@H](OC(C)(C)C)C(=O)O)c(Cl)c3c4c2cc(C)n4CCN3c2nc3c(s2)CCN(C)C3)cc1', 'Potency shift value', 10),
  ('CCCCCO[C@H](C(=O)O)c1c(C)c2c3c(cc(C)n3CCN2c2ncc(OC)cn2)c1-c1ccc(Cl)cc1', 'Potency shift value', 5.8),
  ('Cc1c([C@H](OC(C)(C)C)C(=O)O)c(-c2ccc(Cl)cc2)c2cc(C)n3c2c1N(C(=O)C(=O)N(C)C)[C@@H](C)C3', 'Potency shift value', 2.9);

Field request: Potency shift value | item: "Cc1ccc(-c2c([C@H](OC(C)(C)C)C(=O)O)c(C)c3c4c2cc(C)n4CCN3CCN2CCCO2)cc1"
3.5

Field request: Potency shift value | item: "Cc1nc(N2CCn3c(C)cc4c(-c5ccc(Cl)cc5)c([C@H](OC(C)(C)C)C(=O)O)c(C)c2c43)no1"
12

Field request: Potency shift value | item: Cc1ccc(-c2c([C@H](OC(C)(C)C)C(=O)O)c(C)c3c4c2cc(C)n4CCN3C)c(O)c1 (mixture of isomers)
12

====

Catalogue of Potency shift value readings, one per entry.
# System: HIV
# Format: cell-based
# particulars: EC50 in the presence of human serum (25%) versus without human serum, MT-4 cells
# Method: To confirm the influence of human serum on anti-HIV activity as necessary, human serum was added and determined EC50 in this condition. […] The EC50 in the presence of human serum was calculated in the same manner as in Test Example 1 and the ratio of EC50 in the presence of human serum and EC50 in the absence of human serum was calculated as the potency shift value. […]
Output: the number by itself.

Completed entries (count: 4):
INSERT INTO measurements (compound, measured_number) VALUES
  ('Cc1ccc(-c2c([C@H](OC(C)(C)C)C(=O)O)c(C)c3c4c2cc(C)n4CCN3c2ncc(Oc3ccc4ccccc4n3)cn2)cc1 [Compound I-338]', 18),
  ('Cc1c([C@H](OC(C)(C)C)C(=O)O)c(-c2ccc(Cl)cc2)c2cc(C)n3c2c1N(c1nc2ccccc2n1C)CC3 [Compound I-242]', 11),
  ('Cc1ccc(-c2c([C@H](OC(C)(C)C)C(=O)O)c(Cl)c3c4c2cc(C)n4CCN3c2ccc(C)nn2)cc1 [Compound I-354]', 27),
  ('Cc1ccc(-c2c([C@H](OC(C)(C)C)C(=O)O)c(Cl)c3c4c2cc(C)n4CCN3)cc1 [Compound I-247]', 7.6);

Proceeding to the next compound to report its Potency shift value.
Checklist item: Potency shift value tested on HIV, entry Cc1ccc(-c2c([C@H](OC(C)(C)C)C(=O)O)c(C)c3c4c2cc(C)n4CCN3c2cccc(C(=O)N(C)C)n2)cc1 [Compound I-269] , value?
7.4

Numbers sourced from patent US10494380B2.
